Test system: TDF
Experiment: cell number relative to DMSO (% of DMSO); higher = more cells (less growth inhibition / toxicity)
Settings: concentration: 10 µM; 24 h
The following compounds are listed with their measured cell number values.
Form field (numeric): enter value without unit.

Examples with answers:
CCCC1CC(C(=O)NC(C(C)Cl)C2OC(SC)C(O)C(O)C2O)N(C)C1.Cl (stereo not drawn) [Clindamycin.HCl] ... 110
O=C1NCN(c2ccccc2)C12CCN(CCCC(c1ccc(F)cc1)c1ccc(F)cc1)CC2 [Fluspirilene] ... 87.1
Br.CN1CCc2cc(O)c(O)cc2C(c2ccccc2)C1 (stereo not drawn) ... 98.2
COc1cc(Br)c(S(=O)(=O)Nc2ccc(Cl)c(O[C@@H]3CCN(C)C3)c2)cc1OC ... 82.9
Cl.c1ccc2c(CC3=NCCN3)cccc2c1 [Naphazoline hydrochloride] ... 108
O=C1NCCN1CCN1CCC(c2cn(-c3ccc(F)cc3)c3ccc(Cl)cc23)CC1 ... 39.3
CS(=O)(=O)O.O=C1Nc2ccc(-c3cccnc3)cc2C1=Cc1ccc[nH]1 [JAK3 Inhibitor VI] ... 47.7

Continue with the next compound.
Prompt: // cell number lookup, key: CCCCCCCCCCCCCCC(C(=O)O)=C(C)C(=O)O [Chaetomellic acid A]
Response: 93.6

---

Tested on: HCC1569
Test: cell number relative to DMSO (% of DMSO); higher = more cells (less growth inhibition / toxicity)
Conditions: concentration: 10 µM; 24 h
The following compounds are listed with their measured cell number values.
Form field (numeric): enter value without unit.

Examples with answers:
CN(C)C(=O)Nc1cccc(-c2ccc(N(C)C)cc2)c1 [3-(4'-(dimethylamino)-[1,1'-biphenyl]-3-yl)-1,1-dimethylurea] ... 101
COc1ccc(-c2cc(=S)ss2)cc1 [Anethole trithione] ... 93.6
COc1cc2c(c(OC)c1OC)-c1c(cc3c(c1OC)OCO3)CC(C)C(C)(O)C2OC(=O)c1ccccc1 (stereo not drawn) ... 106
CCCCC(=O)N(Cc1ccc(-c2ccccc2-c2nn[nH]n2)cc1)[C@H](C(=O)O)C(C)C ... 98.8
CC(C)NCC(O)c1ccc(O)c(O)c1.Cl (single isomer, unassigned; (-)) [(-)-Isoproterenol hydrochloride] ... 104
COc1ccc(CC2c3cc(OC)c(OC)cc3CC[N+]2(C)C)cc1OC.[I-] (stereo not drawn) [Laudanosine methiodide] ... 101

Prompt: // cell number lookup, key: CC(C)CN(C)c1nc(N)c(C(=O)N=C(N)N)nc1Cl [5-(N-Methyl-N-isobutyl)amiloride]
Response: 100

Prompt: // cell number lookup, key: O=C(Nc1ccc(Cl)cc1)C1CCCN(C(=O)c2cccc(-c3ccco3)c2)C1 (stereo not drawn)
Response: 86.8

---

System: TDF
Experiment: cell number relative to DMSO (% of DMSO); higher = more cells (less growth inhibition / toxicity)
Settings: concentration: 10 µM; 24 h
assayMetric: cell number
Form field (numeric): enter value without unit.

CNCCCC1c2ccccc2C=Cc2ccccc21.Cl [Protriptyline hydrochloride] ... 99.5
Nc1nc(N)c2nc(CNc3ccc(C(=O)NC(CCC(=O)O)C(=O)O)cc3)cnc2n1 (stereo not drawn) [Aminopterin] ... 87.6
CNC(=O)c1cc(Oc2ccc(NC(=O)Nc3ccc(Cl)c(C(F)(F)F)c3)cc2)ccn1 [Sorafenib] ... 21.5
CCN1CCCC1CNC(=O)c1cc(S(=O)(=O)CC)c(N)cc1OC (stereo not drawn) [Amisulpride] ... 84.5

Continue with the next compound.
Prompt: // cell number lookup, key: COc1cc(-c2oc3cc(O)cc(O)c3c(=O)c2OC2OC(CO)C(O)C(O)C2O)ccc1O (stereo not drawn) [Isorhamnetine-3-glucoside]
Response: 98.2

---

System: HCC1569
Experiment: cell number relative to DMSO (% of DMSO); higher = more cells (less growth inhibition / toxicity)
Conditions: concentration: 10 µM; 24 h
Returns label 1 if the recorded cell number is greater than or equal to 100, and label 0 otherwise.

Answered examples (3):
N[C@@H](CC(=O)O)C(=O)O ... label 1
Nc1nc(Cl)nc2c1ncn2C1OC(CO)C(O)C1F (centres undefined) ... label 0
O=[N+]([O-])c1cccc2cn[nH]c12 ... label 1

Now for another entry.
Prompt: Quick check, cell number >= 100? COc1ccc(C2(C#N)CCC(C(=O)O)CC2)cc1OC1CCCC1 (centres undefined)
Response: label 1

---

Tested on: HCC1569
Assay: H1.0 immunofluorescence intensity relative to DMSO (% of DMSO); higher = stronger H1.0 induction, active = 140 or more
Details: concentration: 10 µM; 24 h
assayMetric: H1.0 immunofluorescence intensity
Form field (numeric): enter value without unit.

Examples with answers:
CN(C)CCCSc1ccccc1NC(=O)C=Cc1ccccc1 ... 107
CC(C)(C(=O)O)c1ccc(C(O)CCCN2CCC(C(O)(c3ccccc3)c3ccccc3)CC2)cc1.Cl (centres undefined) [Fexofenadine hydrochloride] ... 90.5
C#CCN[C@H]1CCc2ccccc21 [N-[(1S)-2,3-dihydro-1H-inden-1-yl]-N-(2-propynyl)amine] ... 98.1

Prompt: // H1.0 immunofluorescence intensity lookup, key: CCCCCCCCCCCCCCCCCCOCC(COP(=O)([O-])OCC[N+](C)(C)C)OC (centres undefined)
Response: 101

---

System: TDF
Assay: H1.0 immunofluorescence intensity relative to DMSO (% of DMSO); higher = stronger H1.0 induction, active = 120 or more
Conditions: concentration: 10 µM; 24 h
The following compounds are listed with their measured H1.0 immunofluorescence intensity values.
Form field (numeric): enter value without unit.

Examples with answers:
COc1cc2c[n+](C)c3c4cc5c(cc4ccc3c2cc1OC)OCO5.[Cl-] ... 138
COc1cc2c(c(OC)c1OC)-c1c(cc3c(c1OC)OCO3)C[C@H](C)[C@@](C)(O)C2 ... 96.3
COC1C=COC2(C)Oc3c(C)c(O)c4c(O)c(cc(O)c4c3C2=O)NC(=O)C(C)=CC=CC(C)C(O)C(C)C(O)C(C)C(OC(C)=O)C1C (centres undefined) ... 97.7
C=CC(C)(O)CCC1C(=C)CCC2C(C)(C)CCCC12C (centres undefined) ... 99.4

Prompt: // H1.0 immunofluorescence intensity lookup, key: O=C(NCCO[N+](=O)[O-])c1cccnc1
Response: 91.5

Prompt: // H1.0 immunofluorescence intensity lookup, key: COc1ccc2cc1Oc1ccc(cc1)CC1c3cc(c(OC)cc3CCN1C)Oc1c(OC)c(OC)cc3c1C(C2)N(C)CC3 (centres undefined)
Response: 111

Prompt: // H1.0 immunofluorescence intensity lookup, key: CN(C(=O)CCCOc1ccc2[nH]c(=O)ccc2c1)C1CCCCC1 [Cilostamide]
Response: 96.9

Prompt: // H1.0 immunofluorescence intensity lookup, key: CCCCCCCCC=CCCCCCCCCC(=O)O [10(E)-Nonadecenoic acid]
Response: 97.4

Prompt: // H1.0 immunofluorescence intensity lookup, key: O=C1CCc2c(ccc3ccccc23)O1 [1,2-dihydro-3H-benzo[f]chromen-3-one]
Response: 95.1

---

Tested on: HCC1569
Experiment: cell number relative to DMSO (% of DMSO); higher = more cells (less growth inhibition / toxicity)
Details: concentration: 10 µM; 24 h
The following compounds are listed with their measured cell number values.
Form field (numeric): enter value without unit.

CC(C)C(CO)Nc1nc(Nc2cccc(Cl)c2)c2ncn(C(C)C)c2n1 (configuration not stated) ... 65.5
CC(C)NCC(O)COc1ccc(CC(N)=O)cc1 (stereo not drawn) [S(-)-Atenolol] ... 101

Continue with the next compound.
Prompt: // cell number lookup, key: Cl.c1ccc2c(CC3=NCCN3)cccc2c1 [Naphazoline hydrochloride]
Response: 96.1

---

Tested on: TDF
Test: cell number relative to DMSO (% of DMSO); higher = more cells (less growth inhibition / toxicity)
Settings: concentration: 10 µM; 24 h
The following compounds are listed with their measured cell number values.

CCCCCCCCCCCCCCC(F)C(=O)O (configuration not stated) ... 102

Prompt: // cell number lookup, key: CC1(C2CCCC2)Cc2cc(OCC(=O)O)c(Cl)c(Cl)c2C1=O (configuration not stated)
Response: 107

Prompt: // cell number lookup, key: c1cc(OCCN2CCCCC2)cc(-c2n[nH]c3ccc(-c4ncn[nH]4)cc23)c1
Response: 107

Prompt: // cell number lookup, key: CNC(=O)c1cc2c(cn1)[nH]c1ccccc12 [N-Methyl-beta-carboline-3-carboxamide]
Response: 111

---

System: TDF
Experiment: cell number relative to DMSO (% of DMSO); higher = more cells (less growth inhibition / toxicity)
Settings: concentration: 10 µM; 24 h
The following compounds are listed with their measured cell number values.
Form field (numeric): enter value without unit.

Examples with answers:
COc1ccc(-c2cc(C(O)C3CCCCN3)c3ccccc3n2)cc1.Cl.Cl (configuration not stated) ... 24.8
CC1CCCC(C)N1NC(=O)c1ccc(Cl)c(S(N)(=O)=O)c1 (configuration not stated) [Clopamide] ... 104
CC1CNCCN1S(=O)(=O)c1cccc2cnccc12.Cl.Cl (configuration not stated) [H-7 dihydrochloride] ... 100
CC[C@H](C)[C@H](N)C(=O)N1CCC[C@H]1C(=O)N[C@H](C(=O)O)[C@@H](C)CC ... 85.3

Prompt: Any idea what cell number came out for NC(N)=Nc1nc(CSCCC(N)=NS(N)(=O)=O)cs1 [Famotidine] on TDF?
Response: 102

Prompt: Any idea what cell number came out for COc1cc(C2CC(=O)c3c(O)cc(O)cc3O2)ccc1O (configuration not stated) on TDF?
Response: 99.7

Prompt: Any idea what cell number came out for Cc1nc2cc3nc(-c4cccs4)cnc3cc2n1C on TDF?
Response: 96.2

Prompt: Any idea what cell number came out for Cl.Cn1ccc2cc3c(cc21)CCN3C(=O)Nc1cccnc1 on TDF?
Response: 112

Prompt: Any idea what cell number came out for C#CCN1C(C)=C(C(=O)OC)C(c2cccc([N+](=O)[O-])c2)C(C(=O)OCC)=C1C (configuration not stated) on TDF?
Response: 107

Prompt: Any idea what cell number came out for C=CC1(C)CCC2C(=CCC3C(C)(C(=O)O)CCCC23C)C1 (configuration not stated) on TDF?
Response: 101

Prompt: Any idea what cell number came out for CCCCCCC(C(C)O)n1cnc2c(N)ncnc21.Cl (stereo not drawn) [erythro-9-(2-Hydroxy-3-nonyl)adenine hydrochloride] on TDF?
Response: 108

Prompt: Any idea what cell number came out for c1cc(-c2cnn3cc(-c4ccc(OCCN5CCCCC5)cc4)cnc23)ccn1 on TDF?
Response: 102

The reported numbers originate from the supplement of paper PMC7156485.
